Quick list: Tumor-to-liver per entry.
- Test system: PC-3 PIP/flu tumor-bearing mice
- EXPERIMENTAL DETAILS: Biodistribution study in PC-3 PIP/flu tumor-bearing mice
- Type: in vivo, athymic nude Balb/c mice
- CONDITION SUMMARY: 4 h p.i., PC-3 PIP/flu tumor-bearing mice
# respond with the number and nothing more

Examples with answers:
{"COMPOUND": "CC(C)Cc1ccc(C(C)C(=O)NC(CC(N)=O)C(=O)NCCCCC(NC(=O)CN2CCN(CC(=O)O)CCN(CC(=O)O)CCN(CC(=O)O)CC2)C(=O)NCC2CCC(C(=O)NC(Cc3ccc4ccccc4c3)C(=O)NCCCCC(NC(=O)NC(CCC(=O)O)C(=O)O)C(=O)O)CC2)cc1 (stereo not drawn) [^177Lu-Ibu-N-PSMA, metal not drawn]", "MEASUREMENT KIND": "Tumor-to-liver", "VALUE OBSERVED": 18.2}
{"COMPOUND": "CC(C)Cc1ccc(C(C)C(=O)NCCCCC(NC(=O)CN2CCN(CC(=O)O)CCN(CC(=O)O)CCN(CC(=O)O)CC2)C(=O)NCC2CCC(C(=O)NC(Cc3ccc4ccccc4c3)C(=O)NCCCCC(NC(=O)NC(CCC(=O)O)C(=O)O)C(=O)O)CC2)cc1 (stereo not drawn) [^177Lu-Ibu-PSMA, metal not drawn]", "MEASUREMENT KIND": "Tumor-to-liver", "VALUE OBSERVED": 29.7}
{"COMPOUND": "CC(C)Cc1ccc(C(C)C(=O)NCC[C@H](NC(=O)CN2CCN(CC(=O)O)CCN(CC(=O)O)CCN(CC(=O)O)CC2)C(=O)NCC2CCC(C(=O)N[C@@H](Cc3ccc4ccccc4c3)C(=O)NCCCC[C@H](NC(=O)N[C@@H](CCC(=O)O)C(=O)O)C(=O)O)CC2)cc1 (stereo partly drawn) [^177Lu-Ibu-sPSMA, metal not drawn]", "MEASUREMENT KIND": "Tumor-to-liver", "VALUE OBSERVED": 14}
{"COMPOUND": "CC(C)Cc1ccc(C(C)C(=O)NC(CCN)C(=O)NCCCCC(NC(=O)CN2CCN(CC(=O)O)CCN(CC(=O)O)CCN(CC(=O)O)CC2)C(=O)NCC2CCC(C(=O)NC(Cc3ccc4ccccc4c3)C(=O)NCCCCC(NC(=O)NC(CCC(=O)O)C(=O)O)C(=O)O)CC2)cc1 (stereo not drawn) [^177Lu-Ibu-DAB-PSMA, metal not drawn]", "MEASUREMENT KIND": "Tumor-to-liver", "VALUE OBSERVED": 44.6}
{"COMPOUND": "CC(C)Cc1ccc(C(C)C(=O)NC(CC(=O)NCCCCC(NC(=O)CN2CCN(CC(=O)O)CCN(CC(=O)O)CCN(CC(=O)O)CC2)C(=O)NCC2CCC(C(=O)NC(Cc3ccc4ccccc4c3)C(=O)NCCCCC(NC(=O)NC(CCC(=O)O)C(=O)O)C(=O)O)CC2)C(=O)O)cc1 (stereo not drawn) [^177Lu-Ibu-Dβ-PSMA, metal not drawn]", "MEASUREMENT KIND": "Tumor-to-liver", "VALUE OBSERVED": 17.0}

Read the next record carefully.
Documented Tumor-to-liver of CC(C)Cc1ccc(C(C)C(=O)NC(CC(=O)O)C(=O)NCCCCC(NC(=O)CN2CCN(CC(=O)O)CCN(CC(=O)O)CCN(CC(=O)O)CC2)C(=O)NCC2CCC(C(=O)NC(Cc3ccc4ccccc4c3)C(=O)NCCCCC(NC(=O)NC(CCC(=O)O)C(=O)O)C(=O)O)CC2)cc1 (stereo not drawn) [^177Lu-Ibu-Dα-PSMA, metal not drawn] : 60.8

Origin of values: patent US20220024882A1
